system: human monoclonal antibody CRJB; assay type: binding
Value Kind: Binding of CRJB to linear peptide (PEPSCAN-ELISA signal)
Answer field: number only, no words.

The cases that follow already have their Binding of CRJB to linear peptide (PEPSCAN-ELISA signal) on record.
ELLESSVIPLVHPLA: 133
FTCTGVVTEAENYTN: 125
TEAENYTNFVGYVTT: 84
SCDIFTNSRGKRASK: 111
SNETKWCPPDQLVNL: 129
SSVIPLVHPLADPST: 104
LGMSCDIFTNSRGKR: 110

Proceeding to the next sequence to report its Binding of CRJB to linear peptide (PEPSCAN-ELISA signal).
Return Binding of CRJB to linear peptide (PEPSCAN-ELISA signal) for the following sequence: ASKGSETCGFVDERG
108

* * *

test system: human monoclonal antibody CRJA; format: binding
Value Kind: Binding of human monoclonal antibody CRJA to linear peptide (PEPSCAN-ELISA signal)
Answer field: number only, no words.

The cases that follow already have their Binding of human monoclonal antibody CRJA to linear peptide (PEPSCAN-ELISA signal) on record.
ADPSTVFKDGDEAED: 101
VHLPDVHNQVSGVDL: 104
VEVHLPDVHNQVSGV: 117
LPDVHNQVSGVDLGL: 97
EAEDFVEVHLPDVHN: 97

Proceeding to the next sequence to report its Binding of human monoclonal antibody CRJA to linear peptide (PEPSCAN-ELISA signal).
Return Binding of human monoclonal antibody CRJA to linear peptide (PEPSCAN-ELISA signal) for the following sequence: DGDEAEDFVEVHLPD
97

* * *

tested on: human monoclonal antibody CRJA; assay type: binding
# Lookup of reported Binding of CRJA to linear peptide (PEPSCAN-ELISA signal) keyed by entry

The cases that follow already have their Binding of CRJA to linear peptide (PEPSCAN-ELISA signal) on record.
NKTLMEADAHYKSVR: 94
GFVDERGLYKSLKGA: 104

Proceeding to the next sequence to report its Binding of CRJA to linear peptide (PEPSCAN-ELISA signal).
Return Binding of CRJA to linear peptide (PEPSCAN-ELISA signal) for the following sequence: TIWMPENPRLGMSCD
93

* * *

# Lookup of reported Binding of CRJB to linear peptide (PEPSCAN-ELISA signal) keyed by entry
test system: human monoclonal antibody CRJB; format: binding
Answer field: number only, no words.

The cases that follow already have their Binding of CRJB to linear peptide (PEPSCAN-ELISA signal) on record.
LMEADAHYKSVRTWN: 107
NWKMAGDPRYEESLH: 101

Return Binding of CRJB to linear peptide (PEPSCAN-ELISA signal) for the following sequence: STYCSTNHDYTIWMP
99

Return Binding of CRJB to linear peptide (PEPSCAN-ELISA signal) for the following sequence: DLDPYDRSLHSRVFP
152

Return Binding of CRJB to linear peptide (PEPSCAN-ELISA signal) for the following sequence: CRAAYNWKMAGDPRY
118

Return Binding of CRJB to linear peptide (PEPSCAN-ELISA signal) for the following sequence: EADAHYKSVRTWNEI
97

Return Binding of CRJB to linear peptide (PEPSCAN-ELISA signal) for the following sequence: DERGLYKSLKGACKL
119

Return Binding of CRJB to linear peptide (PEPSCAN-ELISA signal) for the following sequence: KMNGFTCTGVVTEAE
104

Return Binding of CRJB to linear peptide (PEPSCAN-ELISA signal) for the following sequence: IPEMQSSLLQQHMEL
128

Return Binding of CRJB to linear peptide (PEPSCAN-ELISA signal) for the following sequence: QHMELLESSVIPLVH
146

Return Binding of CRJB to linear peptide (PEPSCAN-ELISA signal) for the following sequence: TNHDYTIWMPENPRL
129

Return Binding of CRJB to linear peptide (PEPSCAN-ELISA signal) for the following sequence: YILAIKMNGFTCTGV
107

Sourced from patent US20060263802A1
